procedure.details: Distribution by internal organs after oral administration (GLC)
Format: in vivo
protocol.conditions: both sexes, outbred white, rat, kidney, po; rats; 100 mg/kg orally; 4.00 h; read-out: Contents of Phenotropil in kidney
endpoint.label: concentration at 4 h (ng/g)

compound: NC(=O)CN1CC(c2ccccc2)CC1=O (racemic)
endpoint.label: concentration at 4 h
units: ng/g
endpoint.value: 28000

* * *

procedure.details: Distribution by internal organs after oral administration (GLC)
Assay type: in vivo
protocol.conditions: both sexes, outbred white, rat, brain, po; rats; 100 mg/kg orally; 0.50 h; read-out: Contents of Phenotropil in brain

compound: NC(=O)CN1CC(c2ccccc2)CC1=O (racemic)
concentration at 0.5 h, ng/g: 2000

* * *

procedure.details: Distribution by internal organs after oral administration (GLC)
Assay type: in vivo
protocol.conditions: both sexes, outbred white, rat, kidney, po; rats; 100 mg/kg orally; 8.00 h; read-out: Contents of Phenotropil in kidney

compound: NC(=O)CN1CC(c2ccccc2)CC1=O (racemic)
concentration at 8 h: 10100 ng/g

* * *

procedure.details: Distribution by internal organs after oral administration (GLC)
Assay type: in vivo
protocol.conditions: both sexes, outbred white, rat, brain, po; rats; 100 mg/kg orally; 1.00 h; read-out: Contents of Phenotropil in brain
Protocol: The degree of tropism of the compound in various organs by quantitative content varies and is arranged in descending order as follows: liver, kidneys, heart, and brain. […] In 15 minutes, its presence is detected in the brain, heart, liver and kidneys. […] The maximum concentration of Phenotropil in the myocardium is detected later than in the brain, but it is eliminated from the myocardium also two hours later. […]

molecule: NC(=O)CN1CC(c2ccccc2)CC1=O (racemic) [Compound 1]
units: ng/g
concentration at 1 h: 6400

* * *

procedure.details: Distribution by internal organs after oral administration (GLC)
Format: in vivo
protocol.conditions: both sexes, outbred white, rat, kidney, po; rats; 100 mg/kg orally; 1.50 h; read-out: Contents of Phenotropil in kidney
endpoint.label: concentration at 1.5 h

molecule: NC(=O)CN1CC(c2ccccc2)CC1=O (racemic) [Compound 1]
endpoint.value: 50400 ng/g

* * *

procedure.details: Distribution by internal organs after oral administration (GLC)
Type: in vivo
protocol.conditions: both sexes, outbred white, rat, heart, po; rats; 100 mg/kg orally; 2.00 h; read-out: Contents of Phenotropil in heart

compound: NC(=O)CN1CC(c2ccccc2)CC1=O (racemic) [Compound 1]
concentration at 2 h (ng/g): 12600

* * *

procedure.details: Distribution by internal organs after oral administration (GLC)
Assay type: in vivo
protocol.conditions: both sexes, outbred white, rat, heart, po; rats; 100 mg/kg orally; 6.00 h; read-out: Contents of Phenotropil in heart
Experimental: The degree of tropism of the compound in various organs by quantitative content varies and is arranged in descending order as follows: liver, kidneys, heart, and brain. […] In 15 minutes, its presence is detected in the brain, heart, liver and kidneys. […] The maximum concentration of Phenotropil in the myocardium is detected later than in the brain, but it is eliminated from the myocardium also two hours later. […]
endpoint.label: concentration at 6 h (ng/g)

compound: NC(=O)CN1CC(c2ccccc2)CC1=O (racemic)
endpoint.label: concentration at 6 h
endpoint.value: 4400

* * *

procedure.details: Distribution by internal organs after oral administration (GLC)
Type: in vivo
protocol.conditions: both sexes, outbred white, rat, liver, po; rats; 100 mg/kg orally; 1.50 h; read-out: Contents of Phenotropil in liver
endpoint.label: concentration at 1.5 h

compound: NC(=O)CN1CC(c2ccccc2)CC1=O (racemic)
endpoint.label: concentration at 1.5 h
endpoint.value: 67700 ng/g

* * *

procedure.details: Distribution by internal organs after oral administration (GLC)
Format: in vivo
protocol.conditions: both sexes, outbred white, rat, kidney, po; rats; 100 mg/kg orally; 2.00 h; read-out: Contents of Phenotropil in kidney
endpoint.label: concentration at 2 h (ng/g)

compound: NC(=O)CN1CC(c2ccccc2)CC1=O (racemic)
endpoint.value: 37200

* * *

procedure.details: Distribution by internal organs after oral administration (GLC)
Format: in vivo
protocol.conditions: both sexes, outbred white, rat, brain, po; rats; 100 mg/kg orally; 4.00 h; read-out: Contents of Phenotropil in brain
endpoint.label: concentration at 4 h (ng/g)

compound: NC(=O)CN1CC(c2ccccc2)CC1=O (racemic)
endpoint.label: concentration at 4 h
endpoint.value: 400

* * *

procedure.details: Distribution by internal organs after oral administration (GLC)
Type: in vivo
protocol.conditions: both sexes, outbred white, rat, brain, po; rats; 100 mg/kg orally; 1.50 h; read-out: Contents of Phenotropil in brain
Procedure: The degree of tropism of the compound in various organs by quantitative content varies and is arranged in descending order as follows: liver, kidneys, heart, and brain. […] In 15 minutes, its presence is detected in the brain, heart, liver and kidneys. […] The maximum concentration of Phenotropil in the myocardium is detected later than in the brain, but it is eliminated from the myocardium also two hours later. […]

molecule: NC(=O)CN1CC(c2ccccc2)CC1=O (racemic) [Compound 1]
concentration at 1.5 h, ng/g: 4000

* * *

procedure.details: Distribution by internal organs after oral administration (GLC)
Assay type: in vivo
protocol.conditions: both sexes, outbred white, rat, liver, po; rats; 100 mg/kg orally; 0.50 h; read-out: Contents of Phenotropil in liver

compound: NC(=O)CN1CC(c2ccccc2)CC1=O (racemic) [Compound 1]
units: ng/g
concentration at 0.5 h: 30100

* * *

procedure.details: Acute toxicity, single intraperitoneal injection in rats aged 30-35 days
Assay type: in vivo
protocol.conditions: both sexes, white outbred, rat, in vivo, ip; rats 30-35 days; single i.p.

compound: NC(=O)CN1CC(c2ccccc2)CC1=O (racemic)
units: mg/kg
LD50 at 14 days: 1030

* * *

procedure.details: Distribution by internal organs after oral administration (GLC)
Format: in vivo
protocol.conditions: both sexes, outbred white, rat, heart, po; rats; 100 mg/kg orally; 1.50 h; read-out: Contents of Phenotropil in heart

compound: NC(=O)CN1CC(c2ccccc2)CC1=O (racemic)
concentration at 1.5 h: 14300 ng/g

* * *

procedure.details: Distribution by internal organs after oral administration (GLC)
Format: in vivo
protocol.conditions: both sexes, outbred white, rat, heart, po; rats; 100 mg/kg orally; 0.50 h; read-out: Contents of Phenotropil in heart

compound: NC(=O)CN1CC(c2ccccc2)CC1=O (racemic)
units: ng/g
concentration at 0.5 h: 7900

* * *

procedure.details: Distribution by internal organs after oral administration (GLC)
Type: in vivo
protocol.conditions: both sexes, outbred white, rat, kidney, po; rats; 100 mg/kg orally; 0.25 h; read-out: Contents of Phenotropil in kidney
Experimental: The degree of tropism of the compound in various organs by quantitative content varies and is arranged in descending order as follows: liver, kidneys, heart, and brain. […] In 15 minutes, its presence is detected in the brain, heart, liver and kidneys. […] The maximum concentration of Phenotropil in the myocardium is detected later than in the brain, but it is eliminated from the myocardium also two hours later. […]

compound: NC(=O)CN1CC(c2ccccc2)CC1=O (racemic) [Compound 1]
concentration at 0.25 h (ng/g): 33200

* * *

procedure.details: Distribution by internal organs after oral administration (GLC)
Format: in vivo
protocol.conditions: both sexes, outbred white, rat, liver, po; rats; 100 mg/kg orally; 6.00 h; read-out: Contents of Phenotropil in liver

molecule: NC(=O)CN1CC(c2ccccc2)CC1=O (racemic) [Compound 1]
concentration at 6 h, ng/g: 17700

* * *

procedure.details: Distribution by internal organs after oral administration (GLC)
Format: in vivo
protocol.conditions: both sexes, outbred white, rat, kidney, po; rats; 100 mg/kg orally; 1.00 h; read-out: Contents of Phenotropil in kidney

molecule: NC(=O)CN1CC(c2ccccc2)CC1=O (racemic) [Compound 1]
concentration at 1 h: 55700 ng/g
